Form field: pIC50 (one value per entry).
# target_entity: GST-Flk1 (Mus musculus, UniProt P35918)
# Construct: GST-Flk1cd purified from sf9 recombinant baculovirus transformation (SUGEN, Inc.)
# Sequence (P35918 784-1345 limits assumed): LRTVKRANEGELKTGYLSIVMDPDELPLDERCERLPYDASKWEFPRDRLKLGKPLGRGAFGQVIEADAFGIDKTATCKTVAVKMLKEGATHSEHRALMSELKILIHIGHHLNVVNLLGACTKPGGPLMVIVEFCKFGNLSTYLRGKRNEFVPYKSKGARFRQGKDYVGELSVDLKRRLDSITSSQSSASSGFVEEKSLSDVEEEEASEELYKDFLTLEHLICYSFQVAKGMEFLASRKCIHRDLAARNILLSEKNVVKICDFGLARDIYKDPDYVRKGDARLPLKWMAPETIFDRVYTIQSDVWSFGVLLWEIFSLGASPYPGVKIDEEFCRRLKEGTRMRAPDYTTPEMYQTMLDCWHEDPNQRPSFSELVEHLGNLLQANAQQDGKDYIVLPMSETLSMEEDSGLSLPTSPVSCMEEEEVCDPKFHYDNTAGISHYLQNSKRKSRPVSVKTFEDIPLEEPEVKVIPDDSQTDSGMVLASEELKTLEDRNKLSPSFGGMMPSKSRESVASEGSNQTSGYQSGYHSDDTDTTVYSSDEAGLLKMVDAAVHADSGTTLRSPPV
# experiment_description: GST-FLK-1 bioassay (bio flkGST), ELISA
pIC50: −log10 of the molar value.

Some compounds with recorded pIC50:
Write down the reported pIC50 of `CCN(CC)CCCNC(=O)c1[nH]c(/C=C2\C(=O)Nc3cc(OC)ccc32)cc1C` , test system: GST-Flk1 (Mus musculus, UniProt P35918).
< 4.70

Write down the reported pIC50 of `CCN(CC)CCCNC(=O)c1[nH]c(/C=C2\C(=O)Nc3ccc(OC)cc32)cc1C` , test system: GST-Flk1 (Mus musculus, UniProt P35918).
< 4.70

Write down the reported pIC50 of `CC(=O)c1c(/C=C2\C(=O)Nc3ccc(Br)cc32)[nH]c(C(=O)NCCCN2CCOCC2)c1C` , test system: GST-Flk1 (Mus musculus, UniProt P35918).
< 4.30

Write down the reported pIC50 of `CNS(=O)(=O)c1ccc2c(c1)/C(=C/c1[nH]cc(C(=O)NCC(=O)O)c1C)C(=O)N2` , test system: GST-Flk1 (Mus musculus, UniProt P35918).
5.71

Others:
Write down the reported pIC50 of `CNS(=O)(=O)c1ccc2c(c1)/C(=C/c1[nH]cc(C(=O)O)c1C)C(=O)N2` , test system: GST-Flk1 (Mus musculus, UniProt P35918).
5.14

Write down the reported pIC50 of `Cc1c(C(=O)NCCCN2CCOCC2)[nH]c(/C=C2\C(=O)Nc3ccc(Br)cc32)c1C(=O)c1ccccc1` , test system: GST-Flk1 (Mus musculus, UniProt P35918).
< 4.70

Write down the reported pIC50 of `CCOC(=O)CNC(=O)c1c[nH]c(/C=C2\C(=O)Nc3ccc(S(=O)(=O)NC)c(C)c32)c1C` , test system: GST-Flk1 (Mus musculus, UniProt P35918).
< 4.70

###

# target_entity: human cdk2/cyclin A (Homo sapiens)
# experiment_description: CDK2/cyclin A scintillation proximity assay (cdk2spa)
# conditions: read-out: cdk2spa C50
assay_readout: pIC50
Please express pIC50 as -log10 of the molar concentration.

Dear colleague, I am looking for the recorded pIC50 of the following compound: `CNS(=O)(=O)c1ccc2c(c1)/C(=C/c1[nH]cc(C(=O)NCC(=O)O)c1C)C(=O)N2`
8.70

// next entry
Dear colleague, I am looking for the recorded pIC50 of the following compound: `CNS(=O)(=O)c1ccc2c(c1)/C(=C/c1[nH]cc(C(=O)O)c1C)C(=O)N2`
8.22

###

# target_entity: PDGFR-β (NIH 3T3 cell lysate) (Homo sapiens, UniProt P09619)
# Sequence (P09619 33-1106): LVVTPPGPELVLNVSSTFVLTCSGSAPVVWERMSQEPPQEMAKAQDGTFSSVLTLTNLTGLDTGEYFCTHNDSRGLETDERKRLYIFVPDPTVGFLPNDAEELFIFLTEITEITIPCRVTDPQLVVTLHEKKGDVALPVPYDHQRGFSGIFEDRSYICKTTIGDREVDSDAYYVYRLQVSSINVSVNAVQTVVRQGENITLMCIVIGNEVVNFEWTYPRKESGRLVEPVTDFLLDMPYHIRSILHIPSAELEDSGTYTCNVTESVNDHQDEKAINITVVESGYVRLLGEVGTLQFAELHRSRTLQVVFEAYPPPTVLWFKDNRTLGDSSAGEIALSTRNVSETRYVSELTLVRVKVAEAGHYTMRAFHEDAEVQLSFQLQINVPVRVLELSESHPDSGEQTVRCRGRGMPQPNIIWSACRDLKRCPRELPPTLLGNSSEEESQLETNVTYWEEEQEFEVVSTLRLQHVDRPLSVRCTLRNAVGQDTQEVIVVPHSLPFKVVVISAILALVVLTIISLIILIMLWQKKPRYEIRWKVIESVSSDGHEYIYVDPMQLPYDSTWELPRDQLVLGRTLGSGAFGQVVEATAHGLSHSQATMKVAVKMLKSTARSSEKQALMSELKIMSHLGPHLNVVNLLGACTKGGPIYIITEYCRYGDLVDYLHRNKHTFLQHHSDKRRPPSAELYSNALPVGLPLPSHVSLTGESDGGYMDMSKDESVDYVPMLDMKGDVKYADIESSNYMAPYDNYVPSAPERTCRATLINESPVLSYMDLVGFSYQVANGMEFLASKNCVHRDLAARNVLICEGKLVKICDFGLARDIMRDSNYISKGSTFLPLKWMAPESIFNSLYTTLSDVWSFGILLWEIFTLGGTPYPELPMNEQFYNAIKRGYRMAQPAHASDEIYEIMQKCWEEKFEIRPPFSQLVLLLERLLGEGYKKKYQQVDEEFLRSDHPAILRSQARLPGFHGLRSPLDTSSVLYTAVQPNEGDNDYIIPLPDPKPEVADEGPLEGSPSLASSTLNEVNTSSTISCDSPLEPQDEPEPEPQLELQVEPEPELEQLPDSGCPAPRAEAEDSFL
# experiment_description: PDGFR bioassay, ELISA
# conditions: read-out: bio PDGF IC50
pIC50: −log10 of the molar value.
Form field: pIC50 (one value per entry).

Dear colleague, I am looking for the recorded pIC50 of the following compound: `COc1ccccc1-c1ccc2c(c1)NC(=O)/C2=C\c1[nH]c(C)c(C(=O)NCCN(C)C)c1-c1ccccc1`
< 4.00

Dear colleague, I am looking for the recorded pIC50 of the following compound: `CC(=O)c1c(/C=C2\C(=O)Nc3ccc(Br)cc32)[nH]c(C(=O)NCCCN2CCOCC2)c1C`
< 4.00

Dear colleague, I am looking for the recorded pIC50 of the following compound: `COc1ccccc1-c1ccc2c(c1)NC(=O)/C2=C\c1[nH]c(C)c(C(=O)NCCN(C)C)c1C`
> 6.11

// next entry
Dear colleague, I am looking for the recorded pIC50 of the following compound: `CNS(=O)(=O)c1ccc2c(c1)/C(=C/c1[nH]cc(C(=O)O)c1C)C(=O)N2`
5.13
